Test system: Rattus norvegicus
ASSAY: Induction of diuresis in Rattus norvegicus albino (rat) assessed as urinary K+ excretion at 20 mg/kg, po measured at 5-18 hr after drug administration by standard Lipschitz method (reference value: 0.22 +/-0.004 mEq/L)
Type: functional, Urine
READOUT_LABEL: Activity (mEq/L)
Form entry: value (mEq/L) — number only.

COMPOUND: COc1cc(C2CC(c3ccc(O)cc3)=NN2C(=O)c2ccc(Cl)cc2)ccc1OCC(=O)O (configuration not stated)
TARGET_DESC: Rattus norvegicus
Activity (mEq/L): 0.56
--
COMPOUND: COc1ccc(C2=NN(C(=O)COc3ccccc3)C(c3ccc(OCC(=O)O)c(OC)c3)C2)cc1 (configuration not stated)
TARGET_DESC: Rattus norvegicus
Activity (mEq/L): 1.35
--
COMPOUND: COc1cc(C2CC(c3ccc(Cl)cc3)=NN2C(=O)c2ccc(C)cc2)ccc1OCC(=O)O (configuration not stated)
TARGET_DESC: Rattus norvegicus
Activity (mEq/L): 2.66

Now, please, on to the next compound.
Task: Quick check: Activity of COc1ccc(C2=NN(C(=O)c3ccc(Cl)cc3)C(c3ccc(OCC(=O)O)c(OC)c3)C2)cc1 (configuration not stated) ?
Output: 0.068
